Target: T1, human RARα LBD (residues 153-421) (human, UniProt P10276 153-421)
T1 construct: Cloned in pET15b; The purification of RARα alone is not described; also called hRARα LBD; RARα monomer; source: E. coli BL21 (DE3), purified
T1 sequence (looked up): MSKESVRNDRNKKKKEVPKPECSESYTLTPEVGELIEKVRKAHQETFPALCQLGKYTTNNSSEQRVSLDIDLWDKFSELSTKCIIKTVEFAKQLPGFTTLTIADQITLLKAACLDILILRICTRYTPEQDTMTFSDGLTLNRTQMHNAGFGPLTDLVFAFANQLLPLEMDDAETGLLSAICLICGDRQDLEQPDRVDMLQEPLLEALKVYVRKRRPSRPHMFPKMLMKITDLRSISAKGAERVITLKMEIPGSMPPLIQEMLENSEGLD
Test: ITC; SRC-1 NR2 peptide (1.3 mM) injected into 20-50 µM RAR without ligand (apo); 30°C; 20 mM Tris pH 8.0, 200 mM NaCl, 2% ethanol
Details: both partners purified
QUANTITY KIND: Kd (µM)
# output: bare number, implied unit µM

Value of Kd reported for the binder CPSSHSSLTERHKILHRLLQEGSPS (The unlabelled 25-residue peptide used in ITC and ESI-MS; It is not the 13-residue TAMRA-labelled peptide of the anisotropy titrations) [SRC-1 NR2 peptide (676-[residues removed]-700)] is 9
